Assay: in vitro
Details: mouse, serum, peptide remaining in serum, Mean, mice serum, 37 °C, 4 h; RP-HPLC; mean of n = 3 (source data Fig. 2f)
Bridges are numbered along the chain shown (N, C = ends).
property: remaining at 4 h (%)
I only need the number, in %, no unit after it.

Which remaining at 4 h value is on record for H-RVQGRWKVRASFFKEAAAKEAAAKGFAWNVCVYRNGVRVCHRRAN-OH (disulfide 31-40) [A6] ?
4.77

* * *

Experiment: in vitro
Conditions: mouse, serum, peptide remaining in serum, Mean, mice serum, 37 °C, 1 h; RP-HPLC; mean of n = 3 (source data Fig. 2f)
Procedure: The thermal, pH and enzyme stability of A6 and G6 were evaluated against MDR E. coli CVCC195 using a previous method with minor revisions. The N6, A6, and G6 solutions were treated at different temperatures (20–100 °C) for 1 h, dissolved and incubated at different pH values (2–10) for 3 h, or incubated with trypsin or pepsin for 4 h. The inhibition zone diameters were measured after incubation at 37 °C for 18–24 h. […]
Bridges are numbered along the chain shown (N, C = ends).
property: remaining at 1 h
Remember to put the unit after the number in your answer.

What does the data say about its remaining at 1 h? Entry: H-RVQGRWKVRASFFKEAAAKEAAAKGFAWNVCVYRNGVRVCHRRAN-OH (disulfide 31-40) [A6]
27%
